Target: 5-hydroxytryptamine receptor 2A (Rattus norvegicus, UniProt P14842)
Sequence (P14842 whole entry): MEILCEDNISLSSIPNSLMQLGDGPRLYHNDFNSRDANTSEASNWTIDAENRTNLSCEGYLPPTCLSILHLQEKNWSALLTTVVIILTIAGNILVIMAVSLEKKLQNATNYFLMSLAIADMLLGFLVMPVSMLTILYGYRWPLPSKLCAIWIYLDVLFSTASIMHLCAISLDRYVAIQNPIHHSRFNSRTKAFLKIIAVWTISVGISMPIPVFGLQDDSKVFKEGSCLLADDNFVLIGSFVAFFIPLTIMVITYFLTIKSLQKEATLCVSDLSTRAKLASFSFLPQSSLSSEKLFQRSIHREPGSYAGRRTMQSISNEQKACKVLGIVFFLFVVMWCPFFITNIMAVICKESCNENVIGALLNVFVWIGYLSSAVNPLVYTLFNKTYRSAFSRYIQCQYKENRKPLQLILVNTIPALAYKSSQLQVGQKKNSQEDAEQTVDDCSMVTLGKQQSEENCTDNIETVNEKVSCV
pKi: −log10 of the molar value.
Measured property: pKi

- CN[C@@H](C)Cc1ccc2c(c1)OCO2 [MDMA, R(-)]: 5.41
- c1ccc2nc(N3CCNCC3)ccc2c1: 7.04
- CCCN1CCCC(c2cccc(O)c2)C1 (stereo not given): 5.22
- CNc1cc(OC)c(C(=O)N[C@H]2CCN(Cc3ccccc3)[C@H]2C)cc1Cl [Nemonapride]: 7.24

* * *

Some molecules, each annotated with its measured pKi.
Molecular target: Kappa-type opioid receptor (Cavia porcellus, UniProt P41144)
Sequence (P41144 whole entry): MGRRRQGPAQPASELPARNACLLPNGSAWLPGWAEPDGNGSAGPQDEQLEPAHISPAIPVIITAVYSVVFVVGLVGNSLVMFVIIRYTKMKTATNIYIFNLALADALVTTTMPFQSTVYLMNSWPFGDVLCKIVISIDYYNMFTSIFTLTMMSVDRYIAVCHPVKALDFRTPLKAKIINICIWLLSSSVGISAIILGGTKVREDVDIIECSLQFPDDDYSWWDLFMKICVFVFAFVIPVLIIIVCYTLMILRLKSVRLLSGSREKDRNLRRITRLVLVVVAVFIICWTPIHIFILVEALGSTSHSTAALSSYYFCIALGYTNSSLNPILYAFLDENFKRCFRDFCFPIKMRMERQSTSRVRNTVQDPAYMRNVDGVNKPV
pKi: −log10 of the molar value.
Measured property: pKi

• CN1CCC2(C)c3cc(O)ccc3CC1C2(C)CCC(=O)CCC1CCCC1 (stereo not drawn) = 9.70
• Oc1ccc2c3c1OC1C(O)C=CC4C(C2)NCCC341 (stereo not drawn) = 7.19
• Oc1ccc2c3c1O[C@H]1c4oc5ccccc5c4C[C@@]4(O)[C@@H](C2)N(CC2CC2)CC[C@]314 = 7.99
• C[C@@H](O)[C@H](NC(=O)[C@H]1NC(=O)[C@H]([C@@H](C)O)NC(=O)[C@H](CCCN=C(N)N)NC(=O)[C@@H](Cc2c[nH]c3ccccc23)NC(=O)[C@H](Cc2ccc(O)cc2)NC(=O)[C@@H](NC(=O)[C@H](N)Cc2ccccc2)CSSC1(C)C)C(N)=O = 5.98
• C=C1CCC2(O)C3Cc4ccc(O)c5c4C2(CCN3CC2CC2)C1O5 (stereo not drawn) = 9.52
• CN1CC[C@]23CCCC[C@H]2[C@H]1Cc1ccc(O)cc13 = 8.47
• CC[C@H](C)[C@H](NC(=O)[C@H](CCCN=C(N)N)NC(=O)[C@H](CCCN=C(N)N)NC(=O)[C@H](CC(C)C)NC(=O)[C@H](Cc1ccccc1)NC(=O)CNC(=O)CNC(=O)[C@@H](N)Cc1ccc(O)cc1)C(=O)O = 8.85
• C=CCN1CCC23c4c5ccc(O)c4O[C@@H]2C(=NNC(=O)c2ccccc2)CCC3(O)C1C5 (stereo partly drawn) = 9.40
• CC(C)=CCN1CC[C@@]2(C)c3cc(O)ccc3C[C@@H]1[C@@H]2C = 8.36
